PROCEDURE DETAILS: endothelial E-selectin expression blockers – imaging, HUVEC, immunofluorescence, MLSMR starter and 10KST1 sets, primary screen (AID 487);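 also: signal is fraction of cell area covered by stained E-selectin grains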
ASSAY SETUP: HUVEC TNFalpha-induced E-selectin immunofluorescence imaging, at 2 µM; stronger effect = higher value
MEASURE: inhibition (%)
Write the number in % without appending the unit.

## Task Which inhibition value belongs to "CCCc1cc(=O)[nH]c(/N=C(\N)Nc2ccccc2)n1" ?
## Result -95.3

## Task Same again, this time with CC1(C)C(c2ccccc2)=NC(c2ccccc2)N1O (stereo unspecified)
## Result -22.6

## Task Same again, this time with CCOC(=O)c1ccc2nc(C)c3c(c2c1)OC(C)C3 (stereo unspecified)
## Result 9

## Task Same again, this time with "C=CCc1cccc2cc(C(=O)NCc3cccnc3)c(=O)oc12"
## Result 4.6

## Task Same again, this time with "O=C(CSc1ncc(-c2ccc(F)cc2)[nH]1)N1CCCCC1"
## Result -25.6

## Task Same again, this time with "O=C(Nc1ccncc1)c1cccc(F)c1"
## Result -13.5

## Task Same again, this time with CCCN1C2CCCC1CC(NC(=O)Nc1cccc(C(C)=O)c1)C2 (stereo unspecified)
## Result -138

## Task Same again, this time with "CCOc1ccccc1NC(=O)CCN1CCN(S(=O)(=O)c2ccc(Br)cc2)CC1"
## Result -67.4

## Task Same again, this time with "COc1ccc(C2=NO[C@@H]3C(=O)N(c4ccc5c(c4)OCCO5)C(=O)[C@H]23)cc1OC"
## Result 11.8

## Task Same again, this time with "Cc1cccc(-n2ncc3c(NCCCO)ncnc32)c1"
## Result -2.8

## Task Same again, this time with "CCc1cc(=O)n2[nH]c(C)c(-c3ccccc3OC)c2n1"
## Result -38.4

----------
PROCEDURE DETAILS: inhibitors of TNFa-induced NFkB p65 translocation, primary screen, imaging, HUVEC, MLSMR starter and 10KST1 sets (AID 438);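 also: compound added about 3h40 before a 20 min TNFalpha stimulation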
ASSAY SETUP: HUVEC TNFa-induced p65 nuclear translocation; measured here: nuclei count (cytotoxicity indicator), at 2.08 µM
Everything with cell count lower than 400 is not satisfied; everything else, including exactly 400, is satisfied.

## Task Quick check: does CCOC(=O)C(C#N)C(c1cccnc1)c1c(C)[nH][nH]c1=O (stereo not drawn) have cell count greater than or equal to 400?
## Result satisfied

## Task Same again, this time with "c1cc2c(cc1Nc1nc(-c3ccc4c(c3)OCO4)cs1)OCCO2"
## Result not satisfied

## Task Same again, this time with "O=C(OCC#CCSc1nc2ccccc2s1)c1ccco1"
## Result satisfied

## Task Same again, this time with COc1ccc(NC(=O)C2CCCN(S(=O)(=O)c3cccc4cccnc34)C2)cc1OC (stereo not drawn)
## Result satisfied

## Task Same again, this time with "CCCS(=O)(=O)N1CCN(C(=O)c2cccs2)CC1"
## Result satisfied

## Task Same again, this time with "CCOC(=O)c1csc(NC(=O)C2CCCCC2)n1"
## Result satisfied

## Task Same again, this time with "Cc1cccc(NC(=O)Cn2c(=O)n(C)c3ccccc32)c1"
## Result not satisfied

## Task Same again, this time with O=C(C1CCCN(S(=O)(=O)c2cnc[nH]2)C1)N1CC(=O)N(CCc2ccccc2)C(=O)C1 (stereo not drawn)
## Result satisfied

## Task Same again, this time with CC1=C(C(=O)OC2CCCCC2)C(c2cccnc2)n2ncnc2N1 (stereo not drawn)
## Result not satisfied

## Task Same again, this time with "CC1(C)CC(=O)CC(=Nc2ccc(C(=O)O)cc2)C1"
## Result satisfied

## Task Same again, this time with "Cc1nc(N)[nH]c(=O)c1CCC(=O)OCC(C)C"
## Result satisfied

## Task Same again, this time with CCOC(=O)C1=C(O)C(=O)N(c2ccc(S(N)(=O)=O)cc2)C1c1ccccc1 (stereo not drawn)
## Result satisfied

## Task Same again, this time with "Cc1ccc(S(=O)(=O)C2(C(=O)Nc3nccs3)CC2)cc1"
## Result satisfied

## Task Same again, this time with CCOc1cc(C2NC(=O)NC(O)(C(F)(F)F)C2C(=O)c2ccccc2)ccc1OC (stereo not drawn)
## Result not satisfied

## Task Same again, this time with O=C(CSCc1cnn(-c2ccccc2)c1-n1cccc1)NCC1CCCO1 (stereo not drawn)
## Result satisfied

## Task Same again, this time with "COc1ccc(NC(=O)CCc2ccccc2)cc1NC(=O)c1ccco1"
## Result satisfied

## Task Same again, this time with "CCCCOc1ccc(CSc2n[nH]c(C)n2)cc1"
## Result not satisfied

## Task Same again, this time with "CCCCn1c(SCC(=O)N2CC(=O)Nc3ccccc32)nnc1-c1ccoc1C"
## Result satisfied

## Task Same again, this time with COCCn1nnnc1C(c1cc2cc(OC)ccc2[nH]c1=O)N1CCC(Cc2ccccc2)CC1 (stereo not drawn)
## Result not satisfied

## Task Same again, this time with "O=C(NCc1nnc(SCC(=O)N2CCC(Cc3ccccc3)CC2)o1)c1ccccc1F"
## Result satisfied

## Task Same again, this time with "Cc1ccc(NC2=NC3(CCCCC3)N=C(N)N2)c(C)c1"
## Result satisfied

## Task Same again, this time with O=C1NC(=O)C(CC(=O)N(Cc2ccco2)C2(C(=O)NC3CCCC3)CCCCC2)N1 (stereo not drawn)
## Result satisfied

Hello, the source for this data is PubChem BioAssay, in case you need it.
